Molecular target: UniProt:P0DTD1
Experiment: biochemical
Conditions: Table 2; read-out: Enzyme IC50
Provide the reported log10 of IC50 of each item.
Response schema: value (number) is log10 of IC50 in units of nM.

IN: // Input: `O=C(c1cncc2cc[nH]c12)N1CCC(=C(c2cccc(O)c2)c2cccc(O)c2)CC1` . Output its log10 of IC50 only.
OUT: 1.61

IN: Fill in reported log10 of IC50 for this entry: `O=C(c1cncc2cn[nH]c12)N1CCC(=C2c3ccccc3CS(=O)(=O)c3ccccc32)CC1`
OUT: 1.64

IN: Read the entry `Cc1cncc(C(=O)N2CCC(=C3c4ccccc4CS(=O)(=O)c4ccccc43)CC2)c1` and write its reported log10 of IC50.
OUT: 1.75

IN: Tell us which log10 of IC50 value is on record for `O=C(c1cnccc1Cl)N1CCN(C(c2ccccc2)c2ccccc2)CC1`
OUT: 3.11

IN: Identify the reported log10 of IC50 for the following entry. `O=C(c1cncc2cc[nH]c12)N1CCC(=C2c3ccccc3CS(=O)(=O)c3ccccc32)CC1`
OUT: 1.48

IN: Note log10 of IC50 for the compound shown: Cc1cncc(C(=O)C2CCN(C(c3ccccc3)c3ccccc3)CC2=O)c1 (stereo not drawn)
OUT: 2.88

IN: Answer with the recorded log10 of IC50 of Cc1cncc(C(=O)N2CCN(C(c3ccccc3)c3ccsc3)CC2)c1 (stereo not drawn) only.
OUT: 2.57

IN: Write down log10 of IC50 measured for item `O=C(c1cncc(Br)c1)N1CCC(=C(c2ccccc2)c2ccccc2)CC1`
OUT: 2.40

IN: Annotate the compound O=C(c1cncc(F)c1)N1CCN(C(c2ccccc2)c2cccnc2)CC1 (stereo not drawn) with its measured log10 of IC50.
OUT: 3.29

IN: Given the compound `Cc1cncc(C(=O)N2CCN(C(c3cccc(F)c3)c3cccc(F)c3)CC2)c1` , write its reported log10 of IC50.
OUT: 1.56

IN: Indicate its recorded log10 of IC50; the compound in question is `O=C(c1cncc2cc[nH]c12)N1CCC(N(c2ccccc2)c2ccccc2)CC1`
OUT: 3.52

IN: Check the records and state log10 of IC50 for `O=C(c1cc[nH]c(=O)c1)N1CCN(C2c3ccccc3CCc3ccccc32)CC1`
OUT: 3.07

IN: Name the recorded log10 of IC50 of the item `O=C(c1cncc(Br)c1)N1CCN(C(c2ccccc2)c2ccccc2)CC1` in your answer.
OUT: 2.34

IN: Please look at this compound and report its log10 of IC50: `Cc1cncc(C(=O)N2CCC(C(c3ccccc3)c3ccccc3)CC2)c1`
OUT: 2.23

IN: Tell me log10 of IC50 reported for Cc1cncc(C(=O)N2CCN(C3c4ccccc4NC(=O)c4ccccc43)CC2)c1 (stereo not drawn)
OUT: 1.72

IN: Give the reported value of log10 of IC50 for this record: `Cc1cncc(C(=O)N2CCC(=C(c3ccccc3)c3ccccc3)CC2)c1`
OUT: 1.93

IN: Let me know recorded log10 of IC50 for O=C(c1cccnc1)N1CCN(C(c2ccccc2)c2cccnc2)CC1 (stereo not drawn) , thanks.
OUT: 3.23

IN: Dear colleague, please send me the reported log10 of IC50 for Cc1cncc(C(=O)N2CCN(C(c3ccccc3)c3ccccn3)CC2)c1 (stereo not drawn) when you can.
OUT: 2.25

IN: Using the record for O=C(c1cncc(Br)c1)N1CCN(C(c2ccccc2)c2cccnc2)CC1 (stereo not drawn) , state its measured log10 of IC50.
OUT: 2.51

IN: Report measured log10 of IC50; entry is Cc1cncc(C(=O)N2CCN(C(c3ccccc3)c3ccc(S(C)(=O)=O)cc3)CC2)c1 (stereo not drawn)
OUT: 3.09

IN: Respond only with log10 of IC50 recorded for COc1cccc(C(c2ccccc2)N2CCN(C(=O)c3cncc(F)c3)CC2)c1 (stereo not drawn)
OUT: 3.36

IN: Entry `Cc1cncc(C(=O)N2CCC(=C3c4ccccc4CCc4ccccc43)CC2)c1` needs its log10 of IC50 filled in; supply it.
OUT: 1.73

IN: Answer with reported log10 of IC50 of `O=C(c1cncc(O)c1)N1CCN(C(c2ccccc2)c2ccccc2)CC1`
OUT: 3.20

IN: Specify measured log10 of IC50 for `O=C(c1cncc(Br)c1)N1CCC(=C2c3ccccc3CS(=O)(=O)c3ccccc32)CC1` .
OUT: 1.83

IN: Assign log10 of IC50 to the following record: O=C1Nc2ccccc2C(N2CCN(C(=O)c3cncc4cc[nH]c34)CC2)c2ccccc21 (stereo not drawn)
OUT: 1.48

IN: Note down log10 of IC50 recorded for `Cc1ccncc1C(=O)N1CCN(C(c2ccccc2)c2ccccc2)CC1`
OUT: 3.40

* * *

Give IC50 for every item shown.
Target: SARS-CoV-2 main protease (Mpro) (Severe acute respiratory syndrome coronavirus 2, UniProt P0DTD1)
Assay: biochemical
Details: Table 2; read-out: Enzyme IC50
# value in nM; strip the unit string

IN: Give IC50 for the following compound: `Cc1cncc(C(=O)N2CCN(C(c3ccccc3)c3ccccc3)CC2)c1`
OUT: 130

IN: Input `O=C(c1cccnc1)N1CCN(C2c3ccccc3CCc3ccccc32)CC1` , output reported IC50.
OUT: 440

IN: State its IC50 for this compound: `COc1ccccc1C(=C1CCN(C(=O)c2cncc(C)c2)CC1)c1ccccn1`
OUT: 170

IN: // Input: `CC(=O)Nc1cncc(C(=O)N2CCN(C(c3ccccc3)c3ccccc3)CC2)c1` . Output its IC50 only.
OUT: 890

IN: Supply measured IC50 of `O=C(c1cncc(F)c1)N1CCN(C(c2ccccc2)c2ccccc2)CC1` in your reply.
OUT: 970

IN: Identify IC50 associated with the compound `O=C(c1cccnc1)N1CCC(=C(c2ccccc2)c2ccccc2)CC1`
OUT: 320

IN: Check the records and state IC50 for O=C(c1cncc(Br)c1)N1CCN(C2c3ccccc3CSc3ccccc32)CC1 (stereo not shown)
OUT: 130

IN: Give the reported value of IC50 for this record: `Cc1cncc(C(=O)N2CCC(=C(c3cccnc3)c3cccc(O)c3)CC2)c1`
OUT: 93

IN: Item Cc1cncc(C(=O)N2CCN(C(c3ccccc3)c3cccc(F)c3)CC2)c1 (stereo not shown) : provide IC50
OUT: 38

IN: Dear colleague, please send me the reported IC50 for `O=C(c1cncc(Br)c1)N1CCN(C2c3ccccc3CCc3ccccc32)CC1` when you can.
OUT: 140

* * *

Kindly supply the reported log10 EC50 values for the records listed here.
Test system: SARS-CoV-2 (strain USA-WA1/2020)
Experiment: microbe, parasite or virus in culture
Type: cell-based
Conditions: Severe acute respiratory syndrome coronavirus 2; Table 2; SARS-CoV-2 infected HeLa-ACE2 cells; read-out: CoV-2 HeLa EC50
Values reflect log10 of reported EC50 (µM).

IN: Quickly give me recorded log10 EC50 for Cc1cncc(C(=O)N2CCC(C(c3ccccc3)c3ccccc3)CC2)c1 [NZ-786]
OUT: -0.24

IN: Answer with reported log10 EC50 of O=C(c1cccnc1)N1CCN(C(c2ccccc2)c2cccnc2)CC1 (centres unmarked) [MKP-1183]
OUT: 0.64

IN: Return reported log10 EC50. Input molecule: Cc1cncc(C(=O)N2CCC(=C3c4ccccc4CSc4ccccc43)CC2)c1 [NZ-794]
OUT: -0.81

IN: Look up log10 EC50 of Cc1cncc(C(=O)N2CCN(C(c3ccccc3)c3ccccc3F)CC2)c1 (centres unmarked) [MKP-1287] and report it.
OUT: -0.22

IN: Give the reported value of log10 EC50 for this record: Cc1cncc(C(=O)N2CCN(C(c3ccccc3)c3cccc(Cl)c3)CC2)c1 (centres unmarked) [MKP-1272]
OUT: -0.61

IN: Tell me measured log10 EC50 for Cc1cncc(C(=O)N2CCN(C(c3ccccc3)c3ccccc3)CC2)c1 [AA-596] please.
OUT: -0.44

IN: Assign log10 EC50 to the following record: O=C(c1cc[nH]c(=O)c1)N1CCN(C2c3ccccc3CCc3ccccc32)CC1 [ZS-320]
OUT: 0.40

IN: Provide one value: measured log10 EC50 of Cc1cncc(C(=O)N2CCC(=C3c4ccccc4CCc4ccccc43)CC2)c1 [ZS-336]
OUT: -0.60

IN: Determine from records and report log10 EC50 for O=C(c1cncc(Cl)c1)N1CCN(C(c2ccccc2)c2ccccc2)CC1 [AA-591]
OUT: -0.05

IN: Return the recorded log10 EC50 value; entry: O=C(c1cncc(Cl)c1)N1CCC(=C(c2ccccc2)c2ccccc2)CC1 [NZ-781]
OUT: 0.02

IN: Note log10 EC50 for the molecule shown: O=C(c1cncc(Br)c1)N1CCN(C(c2ccccc2)c2ccsc2)CC1 (centres unmarked) [MKP-1220]
OUT: -0.05

IN: State, in one line, measured log10 EC50 of Cc1c(Br)cncc1C(=O)N1CCN(C2c3ccccc3CCc3ccccc32)CC1 [ZS-346]
OUT: 0.03

IN: # return recorded log10 EC50 for entry NC(=O)c1cncc(C(=O)N2CCN(C3c4ccccc4CCc4ccccc43)CC2)c1 [ZS-347]
OUT: 0.63

IN: Fill in log10 EC50 for record O=C(c1cncc(Br)c1)N1CCN(C2c3ccccc3C=Cc3ccccc32)CC1 [NZ-773]
OUT: -0.15

IN: Supply reported log10 EC50 belonging to this molecule: Cc1cncc(C(=O)N2CCN(C(c3ccccc3)c3ccccc3S(C)(=O)=O)CC2)c1 (centres unmarked) [NZ-807]
OUT: 0.30

IN: For the molecule O=C(c1cccnc1)N1CCN(C(c2ccccc2)c2ccsc2)CC1 (centres unmarked) [MKP-1215] , give its reported log10 EC50.
OUT: 0.45

IN: Specify reported log10 EC50 for the molecule shown: Cc1cncc(CN2CCN(C(c3ccccc3)c3ccccc3)CC2=O)c1 [AA-646]
OUT: 0.72

IN: Quickly give me recorded log10 EC50 for Cc1cncc(C(=O)N2CCC(=C3c4ccccc4C=Cc4ccccc43)CC2)c1 [NZ-793]
OUT: -0.28

IN: State, in one line, measured log10 EC50 of O=C(c1cncc2cc[nH]c12)N1CCN(C2c3ccccc3CS(=O)(=O)c3ccccc32)CC1 (centres unmarked) [NZ-808]
OUT: -1.60

IN: Provide one value: measured log10 EC50 of O=C1CC(C(=O)N2CCN(C(c3ccccc3)c3ccccc3)CC2)c2ccccc2N1 (centres unmarked) [ZS-325]
OUT: 0.75
